# method.summary: probe aNog binding to arrayed compounds – biochemical, biotinylated probe, 635/667 nm fluorescence, primary screen (AID 1115);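 note: probe is biotinylated aNog protein used at 0.15 µg/mL for 1 h at 4 C; z-score combines 667 nm fluorescence of each spot with its signal to noise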
# measurement.context: small-molecule microarray, higher = more signal
Reported values of composite z-score for individual entries

| compound | composite z-score |
| --- | --- |
| CCCN1C(=O)[C@@]2(c3ccc([N+](=O)[O-])cc3)CC(=O)N(CC34CC5CC(CC(C5)C3)C4)[C@@H]2c2ccc(CO)cc21 | -0.873 |
| [N-]=[N+]=NCc1ccccc1[C@@H]1OC(c2ccc(OCCCO)cc2)=N[C@]1(Cc1ccccc1N=[N+]=[N-])C(=O)NCC(O)CO (stereo not given in full) | 2.34 |
| COCCOC(=O)N1C(=O)[C@@]2(c3cc(C#CCC(C(=O)OC)C(=O)OC)ccc31)[C@H](C(=O)Nc1nc3ccccc3s1)[C@H]1C(=O)O[C@H](c3ccccc3)[C@H](c3ccccc3)N1[C@@H]2c1ccc(O)cc1 | 0.459 |
| O=C(NC1CC1)[C@@H]1c2ccccc2C(=O)N(Cc2ccc(OC(F)(F)F)cc2)[C@H]1c1ccc(CO)cc1 | -0.399 |

Query: I'd like to know its composite z-score. The compound in question is COc1ccc([Si](C)(C)[C@H]2[C@H](CCO)O[C@@]3(C(=O)N(Cc4ccc(NC(=O)[C@H](C)O)cc4)c4ccccc43)[C@@H]2C)cc1
Result: 0.686

Query: // query composite z-score value for entry C=CCOC(=O)[C@H]1[C@@H]2C(=O)O[C@@H](c3ccccc3)[C@@H](c3ccccc3)N2[C@@H](c2ccc(OCCOC(=O)[C@@H]3C[C@@H]4C(=O)N[C@@H](CCCC[N+](C)(C)C)C(=O)N4[C@@H]3c3ccc(O)cc3)cc2)[C@]12C(=O)Nc1ccc(I)cc12
Result: 1.06

Query: State the recorded composite z-score for this entry: [N-]=[N+]=Nc1ccccc1C[C@@]1(C(=O)NCc2ccccc2)N=C(c2ccc(OCCCO)cc2)O[C@@H]1c1ccccc1N=[N+]=[N-]
Result: 1.18

Query: Which composite z-score reading was recorded for the compound C=CCN1Cc2ccccc2[C@H]2OC(c3ccc(OCCCO)cc3)=N[C@@]2(CCS(=O)(=O)c2ccccc2)C1=O ?
Result: -0.0831

Query: Value lookup for composite z-score; key = O=C1OCCC=C[C@H]2OC34C=CCN(c5ccc6ccccc6c5)C(=O)[C@H]3N(CCO)C(=O)[C@@H]4C12 (stereo not given in full)
Result: -0.453

Query: Given COC(=O)[C@@]1(Cc2ccccc2)[C@H]2c3cc(C(=O)N(C)C)n(CCO)c3C[C@H]2CN1C(=O)c1ccccc1 , state its recorded composite z-score.
Result: 0.623
